# test-system: UniProtKB P25105
# Sequence (P25105 whole entry): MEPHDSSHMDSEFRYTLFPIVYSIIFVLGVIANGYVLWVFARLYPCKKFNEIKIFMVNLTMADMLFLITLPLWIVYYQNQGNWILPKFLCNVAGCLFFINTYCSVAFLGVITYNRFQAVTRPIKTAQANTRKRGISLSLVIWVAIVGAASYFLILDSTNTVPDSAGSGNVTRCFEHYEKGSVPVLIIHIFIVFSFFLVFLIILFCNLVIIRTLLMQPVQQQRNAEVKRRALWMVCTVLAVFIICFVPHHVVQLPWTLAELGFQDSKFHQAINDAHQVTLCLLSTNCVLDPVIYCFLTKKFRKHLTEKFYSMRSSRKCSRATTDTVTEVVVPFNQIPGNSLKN
# satisfied = IC50 below 0.08 µM (exclusive); not satisfied = IC50 at/above 0.08 µM

| compound | class |
| --- | --- |
| CC1CCCC(N(C(=O)c2ccc(Cn3ccc4ncnc-4c3)cc2)C2CCCC2)C1 (centres unmarked) | satisfied |
| Cc1cc(C(=O)N(C2CCCCC2)C2CCCC2)ccc1Cn1ccc2ncnc-2c1 | satisfied |
| CCCCCCCCCCNC(=O)c1ccc(Cn2ccc3ncnc-3c2)cc1 | not satisfied |
| O=C(c1ccc(Cn2ccc3ncnc-3c2)c(F)c1)N(C1CCCCC1)C1CCCC1 | satisfied |
| O=C(c1ccc(Cn2ccc3ncnc-3c2)cc1)N(C1CCCCC1)C1CC1 | not satisfied |
| O=C(c1ccc(Cn2ccc3ncnc-3c2)cc1)N(C1CCCCC1)C1CCC1 | satisfied |
| CN(C(=O)c1ccc(Cn2ccc3ncnc-3c2)cc1)C1CCCCC1 | not satisfied |
| CC(C)N(C(=O)c1ccc(Cn2ccc3ncnc-3c2)cc1)C(C)C | not satisfied |
